tgt: T1, full-length Sudan GP (GPFL) (Sudan virus (SUDV), UniProt Q7T9D9 33-650)
T1 construct: also called Sudan GPFL; GP(S)FL
T1 sequence: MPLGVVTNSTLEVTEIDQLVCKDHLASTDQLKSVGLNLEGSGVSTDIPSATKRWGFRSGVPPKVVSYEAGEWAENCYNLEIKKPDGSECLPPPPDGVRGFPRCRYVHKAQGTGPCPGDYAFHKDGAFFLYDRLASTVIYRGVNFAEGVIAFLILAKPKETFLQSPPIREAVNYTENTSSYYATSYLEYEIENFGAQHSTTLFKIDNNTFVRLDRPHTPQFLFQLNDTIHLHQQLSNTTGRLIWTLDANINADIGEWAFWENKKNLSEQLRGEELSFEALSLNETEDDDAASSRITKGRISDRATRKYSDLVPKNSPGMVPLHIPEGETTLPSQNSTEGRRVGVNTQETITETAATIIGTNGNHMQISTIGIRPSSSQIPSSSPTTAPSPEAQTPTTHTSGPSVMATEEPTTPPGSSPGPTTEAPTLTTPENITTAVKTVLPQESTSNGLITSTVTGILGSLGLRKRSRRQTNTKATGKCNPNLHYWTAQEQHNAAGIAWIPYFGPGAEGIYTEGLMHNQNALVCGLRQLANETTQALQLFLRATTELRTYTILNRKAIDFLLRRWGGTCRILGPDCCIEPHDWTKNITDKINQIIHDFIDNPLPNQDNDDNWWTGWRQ
method-description: BLI, Fab, pH 5.3
Everything with kon lower than 20000 M⁻¹ s⁻¹ is f; everything else, including exactly 20000 M⁻¹ s⁻¹, is t.

# binder, label
data = [
    ("Fab generated from 578S (Fab, V domains shown, also called 578S Fab) VH: EVQLVESGGGVVQPGRSLRLSCAASGFTFSSYELHWVRQAPGKGLEWVAVISYDGSSKYYADSLKGRFTISRDNSKNTLSLQMNSLRAEDTAMYYCVRQSEAYCSDGRCDWRRALDIWGQGTMVTVSP VL: DIQMTQSPSSLSASVGDRVTITCQASQDIKNYLNWYQQKPGKAPKLLIYDVSKLETGVPSRFSGSGSGTDFSFTISSLQPEDIATYYCQQYDNLPSYTFGQGTKLEIK", "f"),
    ("Fab generated from 528S (Fab, V domains shown, also called 528S Fab) VH: EVQLAESGGGVVQPGRSLRLSCAASGFTFNSYGMHWVRQAPGKGLEWVAVIWDDGSKKYYADSVKGRFTISRDNSKNTLFLQMNSLRAEDTAVYYCARETIMFTFGEVIVSSRDNYYMDVWGKGTTVTVSS VL: EIVLTQSPATLSLSPGERATLSCRASQSVSNYLAWYQQKPGQAPRLLIYDASTRAIGIPARFSGVGSGTDFTLTISSLEPEDFAVYYCQQRSNWPPLTFGGGTKVEIK", "f"),
    ("Fab generated from 338S (Fab, V domains shown) VH: EVQLVESGGGVVQPGRSLRLSCAASGFTFSQYGMHWVRQAPGKGLECVAVIWFDGSKKYYGDSVKGRFTISRDNSKNTLYLQMNSLRAEDTAVYFCARESLYYYDSGGHYYERGRIDYWGQGTLVTVSS VL: DIQMTQSPSSLSASVGDRVTITCRASQDISNFLAWFQQKPGKAPKSLIYAASSLLSGVPSKFSGSGSGTDFTLTISSLQPEDFATYYCQQYNSYPPTFGQGTKLEIK", "f"),
    ("Fab generated from 285S (Fab, V domains shown) VH: QVQLVQSGAEVKKPGSSVKVSCKASGGTFSTYAITWVRQAPGQGLEWMGRIIPILRVANYAQKFQGRVTITADSSTSTAYMELSSLRSEDTAVYYCANLLAYCGGDCRSDYWGQGTLVTVSS VL: EIVLTQSPGTLSLSPGERATLSCRASQSVKNSYLAWYHQKPGQAPRLLIYGASSRATGIPDRFSGSGSGTDFTLTISRLEPEDFAVYYCQQYGSSLWTFGQGTKVDVK", "f"),
]

input: kon >= 20000 M⁻¹ s⁻¹ for Fab generated from 365S (Fab, V domains shown, also called 365S Fab) VH: EVQLVESGGGLVQPGGSLRLSCAASGLTFSAYEMNWVRQAPGKGLEWVSHITTSGSAIYYADSVKGRFTISRDNAKNSLHLQMNRLRADDTAVYFCARDSTIVQCSGTSCHVSTYSYMDVWGKGTTVTVSS VL: EIVLTQSPATLSLSPGERATLSCRASQSVTTYLAWYQHKPGQAPRLLIYDASKRATGIPARFSGSGSGTDFTLTISSLEPEDFAVYHCQQRSSWPPITFGQGTRLEIK ?
output: t
